Cited source: patent US9376418B2

compounds and their reported IC50
# Target Entity: recombinant human GST-SYK (Homo sapiens)
# Construct: purchased Carna Biosciences 08-176
# Test Method Notes: Homogeneous Time-Resolved Fluorescence (HTRF) assay for the recombinant human Syk enzyme
# Assay type: biochemical
# Condition Set: HTRF assay, recombinant human GST-SYK; IC50 given as class symbols; read-out: rhSYK Activity

Compound	Target Entity	IC50
COC(=O)c1ccc(-c2cc(C)cc(Nc3nccc(C(F)(F)F)n3)c2)cn1	recombinant human GST-SYK (Homo sapiens)	100 to 1000 nM
Cc1cc(Nc2nccc(C(F)(F)F)n2)cc(-c2ccc(C3(O)COC(C)(C)OC3)nc2)c1	recombinant human GST-SYK (Homo sapiens)	100 to 1000 nM
CCC(C)(C#N)Nc1ccc(-c2cc(C)cc(Nc3nccc(C(F)(F)F)n3)c2)cn1 (stereo not shown) [Example 18.4]	recombinant human GST-SYK (Homo sapiens)	100 to 1000 nM

Lookup: IC50 / recombinant human GST-SYK (Homo sapiens) / CCOC(=O)CCc1ccc(-c2cc(C)cc(Nc3nccc(C)n3)c2)cn1 100 to 1000 nM

Next record, please: CCCCOC(=O)C1CCC(C(C)(O)c2ccc(-c3cc(C)cc(Nc4nccc(C(F)(F)F)n4)c3)cn2)CC1 (single isomer, unassigned) 100 to 1000 nM

Next record, please: Cc1cc(Nc2nccc(C(F)(F)F)n2)cc(-c2ccc(/C=C(/F)C(=O)O)nc2)c1 < 100 nM

Next record, please: Cc1cc(Nc2nccc(C(F)(F)F)n2)cc(-c2ccc(NC3(C(=O)O)CCCC3)nc2)c1 < 100 nM

---

compounds and their reported IC50
# Target Entity: recombinant human GST-SYK (Homo sapiens, UniProt P43405)
# Construct: purchased Carna Biosciences 08-176
# Test Method Notes: Homogeneous Time-Resolved Fluorescence (HTRF) assay for the recombinant human Syk enzyme
# Assay type: biochemical
# Condition Set: HTRF assay, recombinant human GST-SYK; IC50 given as class symbols; read-out: rhSYK Activity

Study these solved cases before continuing.
Compound	Readout Type	Measured Value
Cc1cc(Nc2nccc(C(F)(F)F)n2)cc(-c2ccc(S(=O)(=O)NC3CCNC3=O)nc2)c1 (stereo not drawn)	IC50	< 0.1 µM
Cc1cc(Nc2ncc(Cl)c(C(F)(F)F)n2)cc(-c2cccnc2)c1	IC50	0.1 to 1 µM
Cc1cc(Nc2nccc(C(F)(F)F)n2)cc(-c2ccc(N3CCN(CC(=O)O)CC3)nc2)c1	IC50	< 0.1 µM

Look up IC50 for this compound: Cc1cc(Nc2nccc(C(F)(F)F)n2)cc(-c2cncc(C3(O)CCCC(C(=O)O)C3)c2)c1 (stereo not drawn) < 0.1 µM

Next record, please: Cc1cc(Nc2nccc(C(F)(F)F)n2)cc(-c2ccc(C(=O)N3C[C@H]4C[C@@H]3CO4)nc2)c1 < 0.1 µM

Next record, please: Cc1cc(Nc2nccc(C(F)(F)F)n2)cc(-c2ccc(C(=O)Nc3cncnc3)nc2)c1 0.1 to 1 µM

Next record, please: Cc1cc(Nc2nccc(C(F)(F)F)n2)cc(-c2ccc(NC(C)(C)C#N)nc2)c1 < 0.1 µM

Next record, please: Cc1cc(Nc2nccc(C(F)(F)F)n2)cc(-c2ccnc(NCc3cncn3C)c2)c1 0.1 to 1 µM

Next record, please: Cc1cc(Nc2nccc(C3CC3)n2)cc(-c2ccc(CCC(=O)O)nc2)c1 < 0.1 µM

Next record, please: Cc1cc(Nc2nccc(C(F)(F)F)n2)cc(-c2ccc(CN)nc2)c1 < 0.1 µM

Next record, please: Cc1cc(Nc2nccc(C(F)(F)F)n2)cc(-c2ccc(N3CCC([C@@H]4CCCC[C@H]4C(=O)O)CC3)nc2)c1 < 0.1 µM

Next record, please: Cc1cc(Nc2nccc(C(F)(F)F)n2)cc(-c2ccc(NCc3ncnn3C)nc2)c1 < 0.1 µM

Next record, please: O=C(O)CCc1ccc(-c2cccc(Nc3nccc(C(F)(F)F)n3)c2)cn1 < 0.1 µM

Next record, please: Cc1cc(Nc2nccc(C(F)(F)F)n2)cc(-c2ccc(N3CCCC4(CCNC4=O)C3)nc2)c1 (stereo not drawn) 0.1 to 1 µM

Next record, please: CC1(C(=O)O)CCC(O)(c2ccc(-c3cc(Nc4nccc(C(F)(F)F)n4)cc(C(F)F)c3)cn2)CC1 (stereo not drawn) < 0.1 µM
